- Tested on: TNF-α induced IL-8 in 50% human whole blood
- measurement-protocol: Inhibition of TNF-α induced IL-8 in 50% human whole blood
- Assay type: cell-based
- condition-description: 50% human whole blood activated with 1 nM TNF-α, secreted IL-8, 16-18 hours; read-out: WB TNF/IL8 IC50
pIC50: −log10 of the molar value.
quantity: pIC50

INSERT INTO results (line_notation, quantity, readout_number) VALUES
  ('CCn1c(=O)c(-c2cc(C(=O)Nc3ccon3)cc(F)c2C)nc2cnn(-c3ccc(F)cc3F)c21', 'pIC50', 8.21),
  ('Cc1ccc(C(=O)NC2CC2)cc1-c1nc2cnn(-c3c(F)cccc3F)c2n(C)c1=O', 'pIC50', 8.14),
  ('Cc1c(F)cc(C(=O)Nc2ccon2)cc1-c1nc2cnn(-c3ccc(F)cc3F)c2n(C)c1=O', 'pIC50', 7.89),
  ('CCn1c(=O)c(-c2cc(C(=O)NC3CC3)cc(F)c2C)nc2cnn(-c3ccc(F)cc3F)c21', 'pIC50', 8.08),
  ('Cc1c(F)cc(C(=O)NC2CC2)cc1-c1nc2cnn(-c3c(F)cccc3F)c2n(C)c1=O', 'pIC50', 7.97);
